assay: Cytotoxicity, alamarBlue viability, MRC-5; format: cell-based; details: human, MRC-5 fibroblast cells, 48 hours incubation, read-out: MRC-5 LC50
READOUT NAME: CC50 at 48 h (µM)

{"QUERY SMILES": "CCOC(=O)c1csc(CN(Cc2ccc(F)cc2)Cc2ccc(-c3ccccc3)cc2)n1", "OBSERVED MEASUREMENT": 13}
{"QUERY SMILES": "CCOC(=O)c1csc(CN(Cc2ccc(F)cc2)Cc2ccc(OCc3ccncc3)cc2)n1", "OBSERVED MEASUREMENT": 2.9}
{"QUERY SMILES": "O=C(O)c1csc(CN(Cc2ccc(F)cc2)Cc2ccc(OCc3cccnc3)cc2)n1", "OBSERVED MEASUREMENT": 25}
{"QUERY SMILES": "O=C(O)c1csc(CN(Cc2ccc(F)cc2)Cc2ccc(-c3ccccc3)cc2)n1", "OBSERVED MEASUREMENT": 2.9}
{"QUERY SMILES": "O=C(O)c1csc(CN(Cc2ccc(OCc3ccccc3)cc2)Cc2cccnc2)n1", "OBSERVED MEASUREMENT": 42}
{"QUERY SMILES": "CCOC(=O)c1csc(CN(Cc2ccc(OCc3ccccc3)cc2)Cc2cccnc2)n1", "OBSERVED MEASUREMENT": 1.9}
{"QUERY SMILES": "O=C(O)c1csc(CN(Cc2ccncc2)Cc2ccc(OCc3ccccc3)cc2)n1", "OBSERVED MEASUREMENT": 11}
{"QUERY SMILES": "O=C(O)c1c[nH]c(CN(Cc2ccc(F)cc2)Cc2ccc(OC(c3ccccc3)c3ccccc3)cc2)n1", "OBSERVED MEASUREMENT": 2}

###

assay: Cytotoxicity, alamarBlue viability, MRC-5; assay type: cell-based; conditions: human, MRC-5 fibroblast cells, 48 hours incubation, read-out: MRC-5 LC50
READOUT NAME: CC50 at 48 h (µM)

{"COMPOUND": "O=C(O)c1csc(CN(Cc2ccc(OCc3cccnc3)cc2)Cc2cccnc2)n1", "READOUT UNITS": "µM", "OBSERVED MEASUREMENT": 20}
{"COMPOUND": "O=C(O)c1csc(CN(Cc2ccc(OCc3ccncc3)cc2)Cc2cccnc2)n1", "READOUT UNITS": "µM", "OBSERVED MEASUREMENT": 90}
{"COMPOUND": "CCOC(=O)c1csc(CN(Cc2ccc(F)cc2)Cc2ccc(OCc3ccccc3)cc2)n1", "READOUT UNITS": "µM", "OBSERVED MEASUREMENT": 12}
{"COMPOUND": "O=C(O)c1c[nH]c(CN(Cc2ccc(F)cc2)Cc2ccc(OCc3ccccc3)cc2)n1", "READOUT UNITS": "µM", "OBSERVED MEASUREMENT": 30}
{"COMPOUND": "CCOC(=O)c1csc(CN(Cc2ccc(OCc3ccncc3)cc2)Cc2cccnc2)n1", "READOUT UNITS": "µM", "OBSERVED MEASUREMENT": 27}
{"COMPOUND": "O=C(O)c1csc(CN(Cc2ccc(OCc3ccccc3)cc2)CC(c2ccccc2)c2ccccc2)n1", "READOUT UNITS": "µM", "OBSERVED MEASUREMENT": 18}
{"COMPOUND": "O=C(O)c1c[nH]c(CNCc2ccc(OCc3cccnc3)cc2)n1", "READOUT UNITS": "µM", "OBSERVED MEASUREMENT": 200}
{"COMPOUND": "Cn1cc(C(F)(F)F)nc1CN(Cc1ccc(F)cc1)Cc1ccc(OCc2ccccc2)cc1", "READOUT UNITS": "µM", "OBSERVED MEASUREMENT": 40}
{"COMPOUND": "O=C(O)c1csc(CN(Cc2ccc(F)cc2)Cc2ccc(OCc3ccncc3)cc2)n1", "READOUT UNITS": "µM", "OBSERVED MEASUREMENT": 12}
{"COMPOUND": "CCOC(=O)c1csc(CN(Cc2ccncc2)Cc2ccc(OCc3ccccc3)cc2)n1", "READOUT UNITS": "µM", "OBSERVED MEASUREMENT": 13}
{"COMPOUND": "CCOC(=O)c1csc(CN(Cc2ccc(OCc3cccnc3)cc2)Cc2cccnc2)n1", "READOUT UNITS": "µM", "OBSERVED MEASUREMENT": 15}
{"COMPOUND": "O=C(O)c1csc(CN(Cc2ccccc2)Cc2ccccc2)n1", "READOUT UNITS": "µM", "OBSERVED MEASUREMENT": 117}
{"COMPOUND": "O=C(O)c1csc(CN(Cc2ccc(F)cc2)Cc2ccc(OCc3ccccc3)cc2)n1 [ALBH-known, reference compound]", "READOUT UNITS": "µM", "OBSERVED MEASUREMENT": 33}
{"COMPOUND": "O=C(O)c1csc(CN(Cc2ccc(OCc3ccccc3)cc2)Cc2cccc(F)c2)n1", "READOUT UNITS": "µM", "OBSERVED MEASUREMENT": 43}
{"COMPOUND": "CCOC(=O)c1csc(CN(Cc2ccc(F)cc2)Cc2ccc(OCc3cccnc3)cc2)n1", "READOUT UNITS": "µM", "OBSERVED MEASUREMENT": 0.8}

###

# IC50 values compiled below
target: UniProt:P08253; assay: MMP activity assay (fluorogenic substrate), MMP2 catalytic domain; format: biochemical; conditions: Table 2; read-out: MMP2 IC50
READOUT NAME: IC50 (µM)

{"MOLECULE": "CCOC(=O)c1csc(CN(Cc2ccc(F)cc2)Cc2ccc(-c3ccccc3)cc2)n1", "READOUT UNITS": "µM", "SIGN": ">", "OBSERVED MEASUREMENT": 500}
{"MOLECULE": "CCOC(=O)c1csc(CN(Cc2ccc(F)cc2)Cc2ccc(OCc3ccncc3)cc2)n1", "READOUT UNITS": "µM", "SIGN": ">", "OBSERVED MEASUREMENT": 500}
{"MOLECULE": "O=C(O)c1csc(CN(Cc2ccc(F)cc2)Cc2ccc(-c3ccccc3)cc2)n1", "READOUT UNITS": "µM", "SIGN": "=", "OBSERVED MEASUREMENT": 30}
{"MOLECULE": "O=C(O)c1csc(CN(Cc2ccc(F)cc2)Cc2ccc(OCc3ccncc3)cc2)n1", "READOUT UNITS": "µM", "SIGN": "=", "OBSERVED MEASUREMENT": 8}
{"MOLECULE": "O=C(O)c1csc(CN(Cc2ccccc2)Cc2ccccc2)n1", "READOUT UNITS": "µM", "SIGN": "=", "OBSERVED MEASUREMENT": 10}
{"MOLECULE": "CCOC(=O)c1csc(CN(Cc2ccc(OCc3ccncc3)cc2)Cc2cccnc2)n1", "READOUT UNITS": "µM", "SIGN": "=", "OBSERVED MEASUREMENT": 200}
{"MOLECULE": "FC(F)(F)c1cnc(CCc2ccccc2)[nH]1", "READOUT UNITS": "µM", "SIGN": ">", "OBSERVED MEASUREMENT": 500}
{"MOLECULE": "O=C(O)c1csc(CN(Cc2ccc(F)cc2)Cc2ccc(OCc3cccnc3)cc2)n1", "READOUT UNITS": "µM", "SIGN": "=", "OBSERVED MEASUREMENT": 5.7}
{"MOLECULE": "O=C(O)c1c[nH]c(CN(Cc2ccc(F)cc2)Cc2ccc(OC(c3ccccc3)c3ccccc3)cc2)n1", "READOUT UNITS": "µM", "SIGN": "=", "OBSERVED MEASUREMENT": 35}
{"MOLECULE": "O=C(c1cnc(CCc2ccccc2)[nH]1)N1CCCC1", "READOUT UNITS": "µM", "SIGN": "=", "OBSERVED MEASUREMENT": 62}
{"MOLECULE": "COC(=O)c1cnc(CCc2ccccc2)[nH]1", "READOUT UNITS": "µM", "SIGN": "=", "OBSERVED MEASUREMENT": 66}
{"MOLECULE": "O=C(O)c1cnc(-c2ccccc2)[nH]1", "READOUT UNITS": "µM", "SIGN": "=", "OBSERVED MEASUREMENT": 137}
{"MOLECULE": "CCOC(=O)c1csc(CN(Cc2ccc(OCc3ccccc3)cc2)Cc2cccnc2)n1", "READOUT UNITS": "µM", "SIGN": ">", "OBSERVED MEASUREMENT": 500}
{"MOLECULE": "O=C(O)c1c[nH]c(CN(Cc2ccc(F)cc2)Cc2ccc(OCc3ccccc3)cc2)n1 [Compound 30]", "READOUT UNITS": "µM", "SIGN": "=", "OBSERVED MEASUREMENT": 6.6}
{"MOLECULE": "Cn1cc(C(F)(F)F)nc1CN(Cc1ccc(F)cc1)Cc1ccc(OCc2ccccc2)cc1", "READOUT UNITS": "µM", "SIGN": ">", "OBSERVED MEASUREMENT": 500}
{"MOLECULE": "O=C(O)c1csc(CN(Cc2ccc(OCc3cccnc3)cc2)Cc2cccnc2)n1", "READOUT UNITS": "µM", "SIGN": ">", "OBSERVED MEASUREMENT": 500}
{"MOLECULE": "O=C(O)c1c[nH]c(CNCc2ccc(OCc3cccnc3)cc2)n1", "READOUT UNITS": "µM", "SIGN": ">", "OBSERVED MEASUREMENT": 500}
{"MOLECULE": "O=C(O)c1csc(CN(Cc2ccncc2)Cc2ccc(OCc3ccccc3)cc2)n1", "READOUT UNITS": "µM", "SIGN": "=", "OBSERVED MEASUREMENT": 54}
